- TEST_TARGET: Protein cereblon/Focal adhesion kinase 1 (Homo sapiens, UniProt Q05397+Q96SW2)
- Sequence (Q05397 2-1052 limits assumed): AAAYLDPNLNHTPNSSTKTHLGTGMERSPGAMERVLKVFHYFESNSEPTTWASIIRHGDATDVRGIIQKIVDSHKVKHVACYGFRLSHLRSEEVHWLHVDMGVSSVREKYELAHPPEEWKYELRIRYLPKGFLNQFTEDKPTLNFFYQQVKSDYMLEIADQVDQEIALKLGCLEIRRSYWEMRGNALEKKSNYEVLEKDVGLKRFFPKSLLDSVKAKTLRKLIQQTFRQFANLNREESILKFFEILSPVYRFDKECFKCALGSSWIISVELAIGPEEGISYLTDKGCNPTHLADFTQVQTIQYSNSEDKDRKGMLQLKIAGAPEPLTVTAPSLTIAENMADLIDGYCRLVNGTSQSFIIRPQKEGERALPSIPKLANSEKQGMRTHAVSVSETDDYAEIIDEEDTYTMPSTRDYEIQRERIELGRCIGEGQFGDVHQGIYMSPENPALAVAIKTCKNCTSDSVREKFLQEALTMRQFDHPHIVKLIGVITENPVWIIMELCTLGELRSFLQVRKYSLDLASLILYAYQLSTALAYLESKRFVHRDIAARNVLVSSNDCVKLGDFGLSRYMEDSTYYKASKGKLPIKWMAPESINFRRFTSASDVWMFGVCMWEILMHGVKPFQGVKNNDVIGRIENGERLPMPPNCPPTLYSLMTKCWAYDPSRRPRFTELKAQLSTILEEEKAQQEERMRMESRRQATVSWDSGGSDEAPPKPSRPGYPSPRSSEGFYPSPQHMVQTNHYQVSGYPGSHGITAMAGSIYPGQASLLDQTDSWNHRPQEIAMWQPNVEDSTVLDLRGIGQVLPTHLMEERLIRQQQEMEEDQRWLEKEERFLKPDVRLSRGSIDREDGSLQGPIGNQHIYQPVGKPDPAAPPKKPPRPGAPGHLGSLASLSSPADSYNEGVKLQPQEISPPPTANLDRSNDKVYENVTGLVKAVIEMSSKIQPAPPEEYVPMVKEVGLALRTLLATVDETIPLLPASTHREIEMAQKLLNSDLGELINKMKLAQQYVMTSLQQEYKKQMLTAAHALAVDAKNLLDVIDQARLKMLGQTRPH
- Sequence (Q96SW2 whole entry partner): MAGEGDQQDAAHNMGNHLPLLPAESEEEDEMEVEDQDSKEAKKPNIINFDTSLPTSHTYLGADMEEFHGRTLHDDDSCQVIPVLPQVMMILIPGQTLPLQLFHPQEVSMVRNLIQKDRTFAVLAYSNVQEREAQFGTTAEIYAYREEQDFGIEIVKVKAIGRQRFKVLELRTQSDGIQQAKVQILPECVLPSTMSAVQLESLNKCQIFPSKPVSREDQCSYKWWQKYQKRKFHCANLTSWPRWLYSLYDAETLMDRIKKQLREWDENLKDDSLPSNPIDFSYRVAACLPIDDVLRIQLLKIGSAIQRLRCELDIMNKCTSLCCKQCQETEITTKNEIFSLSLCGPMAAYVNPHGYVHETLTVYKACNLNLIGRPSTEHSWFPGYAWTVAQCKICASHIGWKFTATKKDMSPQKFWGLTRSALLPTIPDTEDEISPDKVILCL
- PROTOCOL_TEXT: Protac activity at CRBN/FAK in human PA1 cells assessed as induction of FAK degradation at 1 nM incubated for 8 hrs by Western blot analysis relative to control
- Format: cell-based
- EXPERIMENTAL_SETUP: PA-1
VALUE_TYPE: Activity (%)

P: CN(c1ncccc1CNc1ncc(C(F)(F)F)c(Nc2ccc(NC(=O)c3cn(CCOCCOCCNc4cccc5c4C(=O)N(C4CCC(=O)NC4=O)C5=O)nn3)cc2)n1)S(C)(=O)=O (stereo unspecified)
Q: CN(c1nccnc1CNc1nc(Nc2ccc(NC(=O)c3cn(CCOCCOCCNc4cccc5c4C(=O)N(C4CCC(=O)NC4=O)C5=O)nn3)cc2)ncc1C(F)(F)F)S(C)(=O)=O (stereo unspecified)
Request: Hi there! Just curious which has the higher Activity between P and Q . Provide the label of your selected option as the answer.
Response: Q
(Q: 71%, P: 0%)

###

- TEST_TARGET: Protein cereblon/Focal adhesion kinase 1 (Homo sapiens, UniProt Q05397+Q96SW2)
- PROTOCOL_TEXT: Protac activity at CRBN/FAK in human PA1 cells assessed as induction of FAK degradation at 1 nM incubated for 8 hrs by Western blot analysis relative to control
- Type: cell-based
- EXPERIMENTAL_SETUP: PA-1
VALUE_TYPE: Activity (%)

- COMPOUND: "CN(c1nccnc1CNc1nc(Nc2ccc(C(=O)NCc3cn(CCOCCOCCOCCNc4cccc5c4C(=O)N(C4CCC(=O)NC4=O)C5=O)nn3)cc2)ncc1C(F)(F)F)S(C)(=O)=O (stereo unspecified)"
  Activity (%): 5
- COMPOUND: "CN(c1ncccc1CNc1nc(Nc2ccc(C(=O)NCc3cn(CCOCCNc4cccc5c4C(=O)N(C4CCC(=O)NC4=O)C5=O)nn3)cc2)ncc1C(F)(F)F)S(C)(=O)=O (stereo unspecified)"
  Activity (%): 55
- COMPOUND: "CN(c1ncccc1CNc1nc(Nc2ccc(NC(=O)c3cn(CCOCCOCCOCCNc4cccc5c4C(=O)N(C4CCC(=O)NC4=O)C5=O)nn3)cc2)ncc1C(F)(F)F)S(C)(=O)=O (stereo unspecified)"
  Activity (%): 46
- COMPOUND: "CN(c1ncccc1CNc1nc(Nc2ccc(NC(=O)c3cn(CCCCCOCCCc4cccc5c4C(=O)N(C4CCC(=O)NC4=O)C5=O)nn3)cc2)ncc1C(F)(F)F)S(C)(=O)=O (stereo unspecified)"
  Activity (%): 85
- COMPOUND: "CN(c1ncccc1CNc1nc(Nc2ccc(NC(=O)c3cn(CCCCCCCCNc4cccc5c4C(=O)N(C4CCC(=O)NC4=O)C5=O)nn3)cc2)ncc1C(F)(F)F)S(C)(=O)=O (stereo unspecified)"
  Activity (%): 67
- COMPOUND: "CN(c1ncccc1CNc1ncc(C(F)(F)F)c(Nc2ccc(NC(=O)c3cn(CCOCCNc4cccc5c4C(=O)N(C4CCC(=O)NC4=O)C5=O)nn3)cc2)n1)S(C)(=O)=O (stereo unspecified)"
  Activity (%): 0
- COMPOUND: "CN(c1ncccc1CNc1nc(Nc2ccc(NC(=O)c3cn(CCCCCOCC#Cc4cccc5c4C(=O)N(C4CCC(=O)NC4=O)C5=O)nn3)cc2)ncc1C(F)(F)F)S(C)(=O)=O (stereo unspecified)"
  Activity (%): 62

1: CCN1C(=O)CCC(N2C(=O)c3cccc(NCCOCCOCCn4cc(C(=O)Nc5ccc(Nc6ncc(C(F)(F)F)c(NCc7cccnc7N(C)S(C)(=O)=O)n6)cc5)nn4)c3C2=O)C1=O (stereo unspecified)
2: CN(c1ncccc1CNc1nc(Nc2ccc(NC(=O)c3cn(CCCCCCCC#Cc4cccc5c4C(=O)N(C4CCC(=O)NC4=O)C5=O)nn3)cc2)ncc1C(F)(F)F)S(C)(=O)=O (stereo unspecified)
3: CN(c1ncccc1CNc1nc(Nc2ccc(NC(=O)c3cn(CCOCCNc4cccc5c4C(=O)N(C4CCC(=O)NC4=O)C5=O)nn3)cc2)ncc1C(F)(F)F)S(C)(=O)=O (stereo unspecified)
4: CN(c1ncccc1CNc1nc(Nc2ccc(C(=O)NCc3cn(CCOCCOCCOCCNc4cccc5c4C(=O)N(C4CCC(=O)NC4=O)C5=O)nn3)cc2)ncc1C(F)(F)F)S(C)(=O)=O (stereo unspecified)
Request: Please rank these compounds by Activity in descending order. Would you mind listing the labels in the order asked for?
Response: 2, 3, 4, 1

###

- TEST_TARGET: Protein cereblon/Focal adhesion kinase 1 (Homo sapiens, UniProt Q05397+Q96SW2)
- PROTOCOL_TEXT: Protac activity at CRBN/FAK in human PA1 cells assessed as induction of FAK degradation at 10 nM incubated for 8 hrs by Western blot analysis relative to control
- Format: cell-based
- EXPERIMENTAL_SETUP: PA-1
VALUE_TYPE: Activity (%)

- COMPOUND: "CN(c1nccnc1CNc1nc(Nc2ccc(C(=O)NCc3cn(CCOCCOCCOCCNc4cccc5c4C(=O)N(C4CCC(=O)NC4=O)C5=O)nn3)cc2)ncc1C(F)(F)F)S(C)(=O)=O (centres undefined)"
  U: "%"
  EXPERIMENTAL_RESULT: 22
- COMPOUND: "CN(c1ncccc1CNc1ncc(C(F)(F)F)c(Nc2ccc(NC(=O)c3cn(CCOCCOCCNc4cccc5c4C(=O)N(C4CCC(=O)NC4=O)C5=O)nn3)cc2)n1)S(C)(=O)=O (centres undefined)"
  U: "%"
  EXPERIMENTAL_RESULT: 2
- COMPOUND: "CN(c1ncccc1CNc1nc(Nc2ccc(NC(=O)c3cn(CCCCCOCCCc4cccc5c4C(=O)N(C4CCC(=O)NC4=O)C5=O)nn3)cc2)ncc1C(F)(F)F)S(C)(=O)=O (centres undefined)"
  U: "%"
  EXPERIMENTAL_RESULT: 95
- COMPOUND: "CN(c1ncccc1CNc1nc(Nc2ccc(NC(=O)c3cn(CCOCCOCC#Cc4cccc5c4C(=O)N(C4CCC(=O)NC4=O)C5=O)nn3)cc2)ncc1C(F)(F)F)S(C)(=O)=O (centres undefined)"
  U: "%"
  EXPERIMENTAL_RESULT: 90

a: CN(c1ncccc1CNc1nc(Nc2ccc(C(=O)NCc3cn(CCOCCOCCOCCNc4cccc5c4C(=O)N(C4CCC(=O)NC4=O)C5=O)nn3)cc2)ncc1C(F)(F)F)S(C)(=O)=O (centres undefined)
b: CN(c1nccnc1CNc1nc(Nc2ccc(NC(=O)c3cn(CCOCCOCCOCCNc4cccc5c4C(=O)N(C4CCC(=O)NC4=O)C5=O)nn3)cc2)ncc1C(F)(F)F)S(C)(=O)=O (centres undefined)
Request: Lab notebook, comparison: a versus b , higher Activity goes to which? Output the label that corresponds to your choice.
Response: b

###

- TEST_TARGET: Protein cereblon/Focal adhesion kinase 1 (Homo sapiens, UniProt Q05397+Q96SW2)
- PROTOCOL_TEXT: Protac activity at CRBN/FAK in human PA1 cells assessed as induction of FAK degradation at 1 nM incubated for 8 hrs by Western blot analysis relative to control
- Format: cell-based
- EXPERIMENTAL_SETUP: PA-1
VALUE_TYPE: Activity (%)

- COMPOUND: "CN(c1ncccc1CNc1nc(Nc2ccc(NC(=O)c3cn(CCOCCOCCNc4cccc5c4C(=O)N(C4CCC(=O)NC4=O)C5=O)nn3)cc2)ncc1C(F)(F)F)S(C)(=O)=O (configuration not stated)"
  VALUE_TYPE: "Activity"
  EXPERIMENTAL_RESULT: 90
- COMPOUND: "CN(c1ncccc1CNc1nc(Nc2ccc(NC(=O)c3cn(CCCCCCCCCc4cccc5c4C(=O)N(C4CCC(=O)NC4=O)C5=O)nn3)cc2)ncc1C(F)(F)F)S(C)(=O)=O (configuration not stated)"
  VALUE_TYPE: "Activity"
  EXPERIMENTAL_RESULT: 40
- COMPOUND: "CN(c1ncccc1CNc1nc(Nc2ccc(NC(=O)c3cn(CCOCCOCCCc4cccc5c4C(=O)N(C4CCC(=O)NC4=O)C5=O)nn3)cc2)ncc1C(F)(F)F)S(C)(=O)=O (configuration not stated)"
  VALUE_TYPE: "Activity"
  EXPERIMENTAL_RESULT: 62

1: CN(c1ncccc1CNc1nc(Nc2ccc(C(=O)NCc3cn(CCOCCOCCNc4cccc5c4C(=O)N(C4CCC(=O)NC4=O)C5=O)nn3)cc2)ncc1C(F)(F)F)S(C)(=O)=O (configuration not stated)
2: CN(c1ncccc1CNc1ncc(C(F)(F)F)c(Nc2ccc(NC(=O)c3cn(CCOCCOCCOCCNc4cccc5c4C(=O)N(C4CCC(=O)NC4=O)C5=O)nn3)cc2)n1)S(C)(=O)=O (configuration not stated)
Request: Endpoint returns whichever of 1 and 2 has the numerically higher Activity. Answer = label.
Response: 1

###

- TEST_TARGET: Protein cereblon/Focal adhesion kinase 1 (Homo sapiens, UniProt Q05397+Q96SW2)
- PROTOCOL_TEXT: Protac activity at CRBN/FAK in human PA1 cells assessed as induction of FAK degradation at 1 nM incubated for 8 hrs by Western blot analysis relative to control
- Format: cell-based
- EXPERIMENTAL_SETUP: PA-1
VALUE_TYPE: Activity (%)

- COMPOUND: "CN(c1nccnc1CNc1nc(Nc2ccc(C(=O)NCc3cn(CCOCCNc4cccc5c4C(=O)N(C4CCC(=O)NC4=O)C5=O)nn3)cc2)ncc1C(F)(F)F)S(C)(=O)=O (centres undefined)"
  TEST_TARGET: "Protein cereblon/Focal adhesion kinase 1 (Homo sapiens, UniProt Q05397+Q96SW2)"
  EXPERIMENTAL_RESULT: 37

A: CN(c1nccnc1CNc1nc(Nc2ccc(NC(=O)c3cn(CCOCCOCCOCCNc4cccc5c4C(=O)N(C4CCC(=O)NC4=O)C5=O)nn3)cc2)ncc1C(F)(F)F)S(C)(=O)=O (centres undefined)
B: CN(c1ncccc1CNc1nc(Nc2ccc(NC(=O)c3cn(CCOCCOCC#Cc4cccc5c4C(=O)N(C4CCC(=O)NC4=O)C5=O)nn3)cc2)ncc1C(F)(F)F)S(C)(=O)=O (centres undefined)
Request: Task for the reader: decide whether A or B has the larger Activity. Provide the label of your selected option as the answer.
Response: B
(B: 62%, A: 35%)
